Reference source: ChEMBL document CHEMBL3988442

Tested on: Mycobacterium tuberculosis
method_notes: Cornell - Phenotypic assay to identify agents that inhibit growth of Mycobacterium tuberculosis
Type: functional
Set-up: scale not given: direction of the effect not stated beside the values
condition: 10 mM as filed; unlikely as a test dose
Among all 53,000 compounds or so, about 900 (1.7%) showed an effect of 50% or more. Shown is part of a subset that was picked to be rich in strong results.

{"compound": "CCN(C(=O)CCc1ccc2[nH]ccc2c1)C1CC(=O)NC1=O (configuration not stated)", "unit_info": "%", "Percent Effect": 14.54}
{"compound": "CN(C)CCNCCC(c1ccccc1)C1CCOC(C)(C)C1.O=C(O)C(=O)O (configuration not stated)", "unit_info": "%", "Percent Effect": 21.42}
{"compound": "Oc1ccc(Cl)cc1CNCc1cccc(C(F)(F)F)c1", "unit_info": "%", "Percent Effect": 70.21}
{"compound": "CCOc1ccc(NC(=O)c2[nH]c(C)cc2C)cc1CO", "unit_info": "%", "Percent Effect": 102.6}
{"compound": "c1ccc(COc2ccccc2NC2CCOCC2)nc1", "unit_info": "%", "Percent Effect": 50.88}
{"compound": "CCNC(=O)N(Cc1cccc(OC)c1)C1CCC(O)CC1 (configuration not stated)", "unit_info": "%", "Percent Effect": 21.75}
{"compound": "O=C(C1CC1)N(Cc1ccc2cc[nH]c2c1)C1CC1", "unit_info": "%", "Percent Effect": 42.2}
{"compound": "O=C(Nc1ccccc1OCCc1ccccn1)NC1CCOCC1", "unit_info": "%", "Percent Effect": -20.67}
{"compound": "Oc1ccc(Cl)cc1CNCc1ccccc1C(F)(F)F", "unit_info": "%", "Percent Effect": 6.779}
{"compound": "COCC(=O)N(Cc1ccc2cc[nH]c2c1)C1CC1", "unit_info": "%", "Percent Effect": 57.03}
{"compound": "CNC(=O)c1cccc(CC2COCCN(Cc3ccc(C)o3)C2)n1 (configuration not stated)", "unit_info": "%", "Percent Effect": 0.6767}
{"compound": "COCC(=O)N(Cc1ccc2[nH]ccc2c1)C1CC1", "unit_info": "%", "Percent Effect": 26.94}
